Provenance of the data: patent US11684616B2

# target_or_system: human full-length autophosphorylated recombinant HPK1 (Homo sapiens (Human))
# Sequence (Q92918 other isoform, or with tags, fused parts or gaps): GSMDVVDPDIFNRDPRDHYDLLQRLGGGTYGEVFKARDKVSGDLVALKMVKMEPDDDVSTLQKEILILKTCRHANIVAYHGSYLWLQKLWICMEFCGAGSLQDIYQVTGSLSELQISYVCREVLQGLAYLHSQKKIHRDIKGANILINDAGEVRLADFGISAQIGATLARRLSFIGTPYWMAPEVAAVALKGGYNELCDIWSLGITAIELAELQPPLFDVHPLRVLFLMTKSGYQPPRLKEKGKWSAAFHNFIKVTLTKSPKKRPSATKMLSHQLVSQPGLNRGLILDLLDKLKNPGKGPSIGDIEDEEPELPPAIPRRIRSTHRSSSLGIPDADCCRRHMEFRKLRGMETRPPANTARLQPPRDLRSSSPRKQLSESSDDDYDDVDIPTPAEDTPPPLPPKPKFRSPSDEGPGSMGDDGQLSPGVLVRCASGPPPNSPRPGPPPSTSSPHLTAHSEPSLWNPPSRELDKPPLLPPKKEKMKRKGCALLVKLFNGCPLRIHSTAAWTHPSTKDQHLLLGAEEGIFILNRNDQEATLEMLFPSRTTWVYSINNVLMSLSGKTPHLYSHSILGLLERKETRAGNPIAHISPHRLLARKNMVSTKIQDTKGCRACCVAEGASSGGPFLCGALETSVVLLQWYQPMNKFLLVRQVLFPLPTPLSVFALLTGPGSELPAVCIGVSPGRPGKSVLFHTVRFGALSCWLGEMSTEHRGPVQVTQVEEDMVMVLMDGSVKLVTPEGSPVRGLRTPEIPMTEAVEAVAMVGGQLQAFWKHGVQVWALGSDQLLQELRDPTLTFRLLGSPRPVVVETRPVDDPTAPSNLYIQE
# assay_info: HPK1 biochemical enzyme assay (chelation-enhanced fluorescence, CHEF)
# cond: 0.5 nM HPK1, 45 μM ATP, Morrison fit
# Protocol: HPK1 Biochemical Enzyme Assay HPK1 enzyme inhibition was measured by using the fluorescence-based chelation-enhanced fluorescence (CHEF) method (1), and by using a proprietary fluorescent peptide substrate, in which a cysteine residue is alkylated with a sulfonamido-oxine-based derivative to afford an amino acid termed C-Sox (CSx). […]
Rule: Ki below 0.9 nM gives Met, anything at or above gives Not met.

Record excerpt, results attached:
CCN(C)c1cc2c(c([C@@H](C)N)n1)CN(c1cccc(-c3nnc(C)n3CC)n1)C2=O (stereo in doubt) : Not met
CCN(C)c1cc2c(c(C(C)(C)N)n1)CN(c1cccc(-c3nnc(C)n3CC)n1)C2=O : Not met
C[C@H](N)c1nc(N2CCC[C@H]2C)cc2c1CN(c1cccc(-c3nnc4n3[C@H](C)CC4)n1)C2=O (single isomer, unassigned) : Met
CC[C@@H]1CCc2nnc(-c3cccc(N4Cc5c(cc(N6CCC[C@H]6C)nc5[C@@H](N)CC)C4=O)n3)n21 (single isomer, unassigned) : Met

Please examine the following record next.
Task: Input CCCn1cnnc1-c1cccc(N2Cc3c(cc(C4(C)CC4)nc3[C@@H](N)CC)C2=O)n1 (single isomer, unassigned) ; condition: Ki strictly below 0.9 nM. Does it hold?
Output: Met

* * *

# target_or_system: human full-length autophosphorylated recombinant HPK1 (Homo sapiens (Human))
# assay_info: HPK1 biochemical enzyme assay (chelation-enhanced fluorescence, CHEF)
# cond: 0.5 nM HPK1, 45 μM ATP, Morrison fit
For each entry below, report its pKi value.
Numbers only, as −log10 of the molar value.

Reference set (8 entries):
C[C@H](N)c1nc(C2(C)CC2)cc2c1CN(c1cccc(-c3nncn3C3CCC3)n1)C2=O (stereo in doubt) [Example 104] : 8.63
CCCn1c(C)nnc1-c1cccc(N2Cc3c(cc(N4CCC[C@H]4C)nc3[C@@H](C)N)C2=O)n1 (single isomer, unassigned) [Example 135] : 9.43
CCCn1cnnc1-c1cccc(N2Cc3c(cc(N(C)C)nc3C(C)(C)N)C2=O)n1 [Example 131] : 8.99
CCn1cnnc1-c1cccc(N2Cc3c(cc(N(C)C)nc3[C@H](C)N)C2=O)n1 (single isomer, unassigned) [Example 152] : 8.82
CC[C@@H]1CCc2nnc(-c3cccc(N4Cc5c(cc(N6CCC[C@H]6C)nc5[C@H](C)N)C4=O)n3)n21 [Example 8] : 8.25
CCn1cnnc1-c1cccc(N2Cc3c(cc(N4CCC[C@H]4C)nc3[C@H](C)N)C2=O)n1 (single isomer, unassigned) [Example 150] : 9.96
CC[C@@H]1CCc2nnc(-c3cccc(N4Cc5c(cc(N(C)C(C)C)nc5[C@@H](C)N)C4=O)n3)n21 [Example 12] : 8.70
CCCn1cnnc1-c1cccc(N2Cc3c(cc(N4CCC[C@H]4C)nc3[C@@H](N)CC)C2=O)n1 [Example 145] : 9.34

Task: What value of pKi has been reported for the following compound? CC[C@@H](N)c1nc(N(C)C)cc2c1CN(c1cccc(-c3nnc4n3[C@@H](CF)CC4)n1)C2=O [Example 33]
Output: 9.68

* * *

Can you tell me Ki for the items I'm about to list?
# target_or_system: human full-length autophosphorylated recombinant HPK1 (Homo sapiens (Human))
# assay_info: HPK1 biochemical enzyme assay (chelation-enhanced fluorescence, CHEF)
# cond: 0.5 nM HPK1, 45 μM ATP, Morrison fit
Numbers only, in nM.

CC[C@H]1CCc2nnc(-c3cccc(N4Cc5c(cc(N6CCC[C@H]6C)nc5[C@H](N)CC)C4=O)n3)n21 (single isomer, unassigned) : 0.93

Task: Item CCn1cnnc1-c1cccc(N2Cc3c(cc(C4(C)CC4)nc3[C@H](C)NC)C2=O)n1 has what recorded Ki?
Output: 0.77
